Tested on: mouse TTR
Experiment: Serum TTR ELISA in mice after LNP delivery
Type: in vivo
Details: Table 3; guide G282; CD-1 female mice, 0.1 mpk i.v.; percentage of vehicle control (TSS)
Serum TTR % TSS reference
Put your answer as a value accompanied by its unit after it.

The cases that follow already have their Serum TTR % TSS on record.
CCCCC/C=C\C/C=C\CCCCCCCC(=O)OCC(COC(=O)CCCCCCC/C=C\C/C=C\CCCCC)OC(=O)NCCN(C)CC [Compound 114, reference compound]: 78% TSS
CCCCC/C=C\C/C=C\CCCCCCCC(=O)OCC(COC(=O)CCCCCCC/C=C\C/C=C\CCCCC)OC(=O)CCC(CCCCCCCCCCCC)OC(=O)OCCCN(C)CC (centres unmarked) [Compound 3]: 78% TSS
CCCCC/C=C\C/C=C\CCCCCCCC(=O)OCC(COC(=O)CCCCCCC/C=C\C/C=C\CCCCC)OC(=O)CCC(CCCCCCCCCCCC)OC(=O)NCC1CCCN1C (centres unmarked) [Compound 9]: 38% TSS
CCCCC/C=C\C/C=C\CCCCCCCC(=O)OCC(COC(=O)CCCCCCC/C=C\C/C=C\CCCCC)OC(=O)CCC(CCCCCCCCCC)OC(=O)NCCN(C)CC (centres unmarked) [Compound 39]: 41% TSS
CCCCC/C=C\C/C=C\CCCCCCCC(=O)OCC(COC(=O)CCCCCCC/C=C\C/C=C\CCCCC)OC(=O)CCC(CCCC)OC(=O)NCCN(C)CC (centres unmarked) [Compound 42]: 58% TSS

Case CCCCC/C=C\C/C=C\CCCCCCCC(=O)OCC(COC(=O)CCCCCCC/C=C\C/C=C\CCCCC)OC(=O)CCC(CCCCCCCCCCCC)OC(=O)OCCCN(C)C (centres unmarked) [Compound 1] , mouse TTR, Serum TTR % TSS recorded as 76% TSS

Case CCCCC/C=C\C/C=C\CCCCCCCC(=O)OCC(COC(=O)CCCCCCC/C=C\C/C=C\CCCCC)OC(=O)CCC(CCCCCC)OC(=O)NCCN(C)CC (centres unmarked) [Compound 40] , mouse TTR, Serum TTR % TSS recorded as 31% TSS

Case CCCCC/C=C\C/C=C\CCCCCCCC(=O)OCC(COC(=O)CCC(CCCCCCCCCCCC)OC(=O)OCCCN(C)C)OC(=O)CCCCCCC/C=C\C/C=C\CCCCC (centres unmarked) [Compound 30] , mouse TTR, Serum TTR % TSS recorded as 95% TSS

Case CCCCC/C=C\C/C=C\CCCCCCCC(=O)OCC(COC(=O)CCCCCCC/C=C\C/C=C\CCCCC)OC(=O)CCC(OC(=O)NCCN(C)CC)C1CCCCC1 (centres unmarked) [Compound 41] , mouse TTR, Serum TTR % TSS recorded as 48% TSS

Case CCCCC/C=C\C/C=C\CCCCCCCC(=O)OCC(COC(=O)CCCCCCC/C=C\C/C=C\CCCCC)OC(=O)CCC(CCCCCCCC)OC(=O)N(C)CCN(C)C (centres unmarked) [Compound 38] , mouse TTR, Serum TTR % TSS recorded as 39% TSS

Case CCCCC/C=C\C/C=C\CCCCCCCC(=O)OCC(COC(=O)CCCCCCC/C=C\C/C=C\CCCCC)OC(=O)CCC(CCCCCCCCCCCC)OC(=O)NCCCN(C)C (centres unmarked) [Compound 8] , mouse TTR, Serum TTR % TSS recorded as 84% TSS
